Reported AC50 for target or system Cytochrome P450 3A4 (Homo sapiens, UniProt P08684), by entry.
Property measured: AC50

CC(C)COP(=O)(c1ccc(N(C)C)cc1)C(O)c1ccccc1F (stereo not drawn)	3.98 µM (inconclusive)
CC(C)=CCC/C(C)=C/CO/N=C1/[C@H]2O[C@@H]2[C@@H](O)[C@H]2[C@H]1CCn1c(=O)n(Cc3cc4c(cc3Cl)OCO4)c(=O)n12	3.98 µM (inconclusive)
C[C@@H]1O[C@H](O[C@@H]2CC[C@@]3(C=O)[C@H]4CC[C@@]5(C)[C@@H](C6=CC(=O)OC6)CC[C@@]5(O)[C@@H]4CC[C@]3(O)C2)C[C@H](O)[C@@H]1O	15.8 µM (inconclusive)
COc1ccc2c(=O)cc(-c3ccncc3)oc2c1OC	3.98 µM (inconclusive)
C/C=C1\C[N@@+]2(C)CC[C@@]34C(=C(C=O)[C@H]1C[C@H]32)Nc1ccccc14	0.00126 µM (inconclusive)
CCCCCOc1ccc(C(=O)NCC2(c3ccccc3)CCOCC2)cc1	31.6 µM (inconclusive)
CCOc1ccc(C(=O)Nc2ccc(NC(=O)c3ccco3)c(Cl)c2)cc1Br	22.4 µM (inconclusive)
CCc1cc2c(nc1CC)CCN(CC/C(C)=N/OC[C@@H](O)[C@@H]1O[C@@H]3OC(C)(C)O[C@@H]3[C@H]1O)C2	6.31 µM (inconclusive)

----------
Target: Aminopeptidase N (Plasmodium falciparum FcB1/Columbia, UniProt O96935)
Sequence (O96935 whole entry): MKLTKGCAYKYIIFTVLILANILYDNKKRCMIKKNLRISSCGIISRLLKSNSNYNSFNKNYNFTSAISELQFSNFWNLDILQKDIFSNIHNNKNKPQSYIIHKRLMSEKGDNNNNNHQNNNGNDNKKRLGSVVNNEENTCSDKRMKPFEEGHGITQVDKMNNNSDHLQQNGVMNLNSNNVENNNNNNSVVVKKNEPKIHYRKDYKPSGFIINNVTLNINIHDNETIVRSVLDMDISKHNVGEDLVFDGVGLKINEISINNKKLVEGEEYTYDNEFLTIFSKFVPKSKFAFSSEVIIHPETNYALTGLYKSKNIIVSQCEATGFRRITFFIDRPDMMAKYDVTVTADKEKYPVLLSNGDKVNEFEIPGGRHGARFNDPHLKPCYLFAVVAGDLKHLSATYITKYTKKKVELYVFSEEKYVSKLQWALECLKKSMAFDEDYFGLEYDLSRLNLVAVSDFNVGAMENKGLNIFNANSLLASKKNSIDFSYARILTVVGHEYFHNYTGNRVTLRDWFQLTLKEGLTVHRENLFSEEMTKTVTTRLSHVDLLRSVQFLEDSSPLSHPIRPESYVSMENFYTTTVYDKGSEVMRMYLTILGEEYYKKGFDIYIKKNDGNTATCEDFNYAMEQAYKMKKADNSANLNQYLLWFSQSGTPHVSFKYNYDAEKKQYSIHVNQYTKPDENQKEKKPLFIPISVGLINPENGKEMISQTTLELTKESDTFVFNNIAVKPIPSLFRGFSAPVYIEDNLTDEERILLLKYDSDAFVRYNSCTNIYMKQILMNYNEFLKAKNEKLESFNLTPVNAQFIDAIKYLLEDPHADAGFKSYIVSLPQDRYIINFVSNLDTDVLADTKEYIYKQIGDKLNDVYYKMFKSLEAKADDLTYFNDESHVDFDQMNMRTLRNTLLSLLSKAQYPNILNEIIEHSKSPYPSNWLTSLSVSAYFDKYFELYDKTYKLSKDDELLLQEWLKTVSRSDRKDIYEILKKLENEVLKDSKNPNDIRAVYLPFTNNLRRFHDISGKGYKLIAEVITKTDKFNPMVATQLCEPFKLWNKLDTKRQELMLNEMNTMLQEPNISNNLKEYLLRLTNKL
Assay: P. falciparum M1AAP inhibitors, biochemical, fluorogenic H-Leu-NHMec substrate, 1536-well (AID 1445)
Parameters: species or system Plasmodium falciparum 3D7, 3D7
The source made the active and inactive calls.
Property measured: IC50

O=c1[nH]c(SCc2ccccc2Cl)nc2n[nH]cc12	9.3 µM (active)
Cc1ccc(C(=O)c2coc3cc([N+](=O)[O-])c(O)c([N+](=O)[O-])c23)cc1	32.1 µM (active)
CS(=O)(=O)c1ccc2c(c1)SC1=NC(=O)/C(=C/c3ccc(O)c(O)c3)C(=N)N12	51.2 µM (active)
O=c1[nH]c2ccc(Br)cc2c(-c2ccccc2)c1CN1CCOCC1	54.2 µM (active)
C/C(=N\NC(=O)c1ccccc1O)C1C(=O)c2ccccc2C1=O	12.8 µM (active)

----------
Biological target: UniProtKB P08684
Conditions: Potency
Consider the following compounds and their measured AC50 readings.
Property measured: AC50

Cc1nc(NC2CCCCC2)c2nc(-c3ccccc3)n(CCCN3CCOCC3)c2n1	5.01 µM (inconclusive)
FC(F)(F)c1ccc(CN2C[C@@H]3C(c4ccc(Cl)nc4)C4(c5ccccc5)CC3(C4)[C@H]2c2ccccc2)cc1 (stereo partly specified)	20 µM (inconclusive)
COC(=O)[C@@H]1C[C@H]2CC[C@H](O)C[C@H]2N1Cc1ccc(C)s1	15.8 µM (inconclusive)
COC(=O)C1=C(C)N(Cc2ccccc2)C2=C(C(C)=O)C[C@@](O)(C(=O)OC)C(=O)N2C1c1ccccc1 (stereo partly specified)	3.16 µM (inconclusive)
C[C@]12CC[C@H]3C(=CCc4cc(O)ccc43)[C@@H]1CCC2=O	39.8 µM (inconclusive)
CC(=O)Oc1ccc2c(c1C(C)C)CCC1C(C)(C)CCC[C@@]21C (stereo partly specified)	39.8 µM (inconclusive)

----------
Consider the following compounds and their measured EC50 readings.
Experiment: inhibitors of SNCA 5'UTR-driven reporter translation, confirmation, H4 neuroglioma cells, luminescence (AID 1988)
Format: functional, cell-based
Calls of active or inactive are those of the source.
Property measured: EC50

CCN(CC)c1ccc(/C=N/n2c(S)nnc2-c2ccccc2Br)cc1	> 120 µM (not active)
COC(=O)C1=C(C)N(Cc2ccccc2)C(NCc2cccc(C(F)(F)F)c2)=N[C@H]1c1cccc(F)c1	> 120 µM (not active)
CC(NC(=O)C12CC3CC(CC(C3)C1)C2)C(=O)N/N=C/C1=C(N2CCOCC2)C(=C\c2ccccc2)/CC1 (configuration not stated)	16.4 µM (active)
CCOc1ccccc1Nc1cc2n(c(=O)n1)CCc1cc(OC)c(OC)cc1-2	9.81 µM (active)
N#Cc1ccc(NC(=O)Nc2ccc(Oc3ccc(NC(=O)Nc4ccc(C#N)cc4)cc3)cc2)cc1	8.67 µM (active)
CCNc1ccc(C(=O)N/N=C/c2c(C)nn(-c3ccccc3)c2N2CCCC2)cc1[N+](=O)[O-]	30.6 µM (active)
COc1ccc(C(=O)NC2CCCc3c2cnn3-c2ccccc2F)o1 (configuration not stated)	22.2 µM (active)

----------
Consider the following compounds and their measured IC50 readings.
Biological target: Induced myeloid leukemia cell differentiation protein Mcl-1 (Homo sapiens, UniProt Q07820)
Sequence (Q07820 whole entry): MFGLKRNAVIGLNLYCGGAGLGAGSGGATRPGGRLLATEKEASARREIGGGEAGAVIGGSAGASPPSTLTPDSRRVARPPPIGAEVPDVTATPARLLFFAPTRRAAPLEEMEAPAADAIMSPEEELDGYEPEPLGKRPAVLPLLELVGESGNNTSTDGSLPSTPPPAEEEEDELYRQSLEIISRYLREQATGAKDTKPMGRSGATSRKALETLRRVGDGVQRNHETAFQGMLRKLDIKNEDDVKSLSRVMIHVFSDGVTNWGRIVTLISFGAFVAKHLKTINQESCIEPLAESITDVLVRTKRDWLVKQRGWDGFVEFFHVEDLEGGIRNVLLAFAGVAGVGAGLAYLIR
Format: functional
Activity calls are given as the source filed them.
Property measured: IC50

CCOc1cc(/C=C(\C#N)c2n[nH]c(N)c2C#N)ccc1O	5.24 µM (active)
CC(=O)c1ccc(NC(=O)CSc2ccsc2[N+](=O)[O-])cc1	< 0.4 µM (not active)
Cc1cc(=O)oc2cc(OCc3ccc(C(=O)OCC(=O)Nc4ccc(N(C)C)cc4)cc3)ccc12	6.17 µM (active)
CS(=O)(=O)c1ccc2c(c1)SC1=NC(=O)/C(=C/c3ccc(O)c(O)c3)C(=N)N12	5.26 µM (active)
Sc1nnc(-c2cc(-c3ccccc3)[nH]n2)n1/N=C/c1c2ccccc2cc2ccccc12	6.05 µM (not active)
CC(/C=N/NC(=O)c1cc(-c2ccc3ccccc3c2)[nH]n1)=C\c1ccco1	4.1 µM (active)
Cc1ccc(-c2cc(C(=O)NCCCn3ccnc3)c3cc(Br)ccc3n2)o1	3.07 µM (not active)
CCNc1nc(NCC)nc(C(=O)NN)n1	2.32 µM (active)
CCOc1cc(/C=C2\C(=O)N(c3nc(-c4ccc(Br)cc4)cs3)N=C2c2ccccc2)ccc1O	2.54 µM (active)
CCN(CC)c1ccc(NC(=O)c2ccccc2OCC(=O)OC)cc1	6.35 µM (not active)

----------
Target: Corticotropin-releasing factor receptor 2/Corticotropin-releasing factor-binding protein (Homo sapiens, UniProt P24387+Q13324)
Sequence (Q13324 whole entry): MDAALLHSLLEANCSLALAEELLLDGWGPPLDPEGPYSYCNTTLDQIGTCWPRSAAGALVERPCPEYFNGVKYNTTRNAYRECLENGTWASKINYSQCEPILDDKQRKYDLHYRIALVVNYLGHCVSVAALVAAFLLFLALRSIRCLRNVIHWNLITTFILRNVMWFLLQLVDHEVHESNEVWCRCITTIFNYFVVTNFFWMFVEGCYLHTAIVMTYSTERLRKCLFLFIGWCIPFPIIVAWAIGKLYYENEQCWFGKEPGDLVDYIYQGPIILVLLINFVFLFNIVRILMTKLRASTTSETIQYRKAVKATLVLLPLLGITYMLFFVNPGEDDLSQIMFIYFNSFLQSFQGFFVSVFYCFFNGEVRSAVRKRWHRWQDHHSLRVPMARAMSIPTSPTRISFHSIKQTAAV
Sequence (P24387 whole entry): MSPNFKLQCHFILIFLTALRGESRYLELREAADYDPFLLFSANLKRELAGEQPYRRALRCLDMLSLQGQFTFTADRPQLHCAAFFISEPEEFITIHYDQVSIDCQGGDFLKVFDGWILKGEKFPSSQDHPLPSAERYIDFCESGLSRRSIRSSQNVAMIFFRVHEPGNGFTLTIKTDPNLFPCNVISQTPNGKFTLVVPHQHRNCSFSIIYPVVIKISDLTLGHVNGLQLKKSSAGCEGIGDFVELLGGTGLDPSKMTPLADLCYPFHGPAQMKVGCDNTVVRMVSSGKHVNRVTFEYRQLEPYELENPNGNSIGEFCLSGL
Test: activators of CRF receptor 2 with binding protein – uHTS hits, confirmation (AID 602473)
Format: functional
Details: read-out: EC50_Mean
Calls of active or inactive are those of the source.
Consider the following compounds and their measured EC50 readings.
Property measured: EC50

O=S(=O)(NCC1(N2CCOCC2)CCCCC1)c1ccc(Cl)cc1C(F)(F)F	5.65 µM (active)
O=C(C[C@H]1C/C=C\C[C@@H](Cc2ccc(F)cc2)C(=O)O[C@H](c2ccccc2)CNC1=O)NCCO	> 53 µM (inactive)
O=C(CCC(=O)N1CCOc2ccccc21)NC1CCCCCC1	> 53 µM (inactive)
